# System tested: T1, EsCas13d, nuclease-dead (Eubacterium siraeum, UniProt B0MS50, R295A;H300A;R849A;H854A)
# T1 sequence: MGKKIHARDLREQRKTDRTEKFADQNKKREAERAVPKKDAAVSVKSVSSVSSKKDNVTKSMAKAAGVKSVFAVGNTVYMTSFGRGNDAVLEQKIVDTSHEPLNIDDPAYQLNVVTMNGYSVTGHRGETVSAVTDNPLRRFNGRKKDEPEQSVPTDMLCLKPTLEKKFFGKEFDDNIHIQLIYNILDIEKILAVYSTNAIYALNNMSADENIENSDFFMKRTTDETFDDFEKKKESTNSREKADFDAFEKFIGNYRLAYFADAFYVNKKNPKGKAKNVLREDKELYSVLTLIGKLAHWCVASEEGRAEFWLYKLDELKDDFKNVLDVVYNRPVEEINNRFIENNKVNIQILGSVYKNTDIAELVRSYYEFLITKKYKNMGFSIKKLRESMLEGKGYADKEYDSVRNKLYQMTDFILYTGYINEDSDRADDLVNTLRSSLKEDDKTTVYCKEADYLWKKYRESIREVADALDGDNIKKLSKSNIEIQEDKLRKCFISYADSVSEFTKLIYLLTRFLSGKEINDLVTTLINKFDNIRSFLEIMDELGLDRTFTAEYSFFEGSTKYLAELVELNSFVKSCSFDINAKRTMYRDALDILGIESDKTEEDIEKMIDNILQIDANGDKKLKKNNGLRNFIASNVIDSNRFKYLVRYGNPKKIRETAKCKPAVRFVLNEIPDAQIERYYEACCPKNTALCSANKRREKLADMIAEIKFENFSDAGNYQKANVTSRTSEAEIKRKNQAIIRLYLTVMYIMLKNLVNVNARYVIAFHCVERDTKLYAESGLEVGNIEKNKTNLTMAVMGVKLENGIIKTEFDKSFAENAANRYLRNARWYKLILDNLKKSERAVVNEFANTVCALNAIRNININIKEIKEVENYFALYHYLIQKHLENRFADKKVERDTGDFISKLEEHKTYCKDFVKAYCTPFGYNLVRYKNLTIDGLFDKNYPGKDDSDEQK
# Protocol description: crRNA (strand 1, pre-loaded); Mg2+; 40 mM Tris-HCl pH 7.5, 150 mM NaCl, 6 mM MgCl2, 1 mM DTT, 0.1% Tween-20, 0.2 mg/ml BSA; 25 C; 10 min per concentration, then washed
# Recorded conditions: tags: His6-TwinStrep-SUMO cleaved; N-terminal SNAP kept (SNAP-Surface 488); label: 3' end held by stalled T7 RNA polymerase
Each record here notes measured Kd.
Numbers only; they are read as nM.

Before answering, review these 7 worked examples.
target 1 A9C,G15A (mixed) RNA 1: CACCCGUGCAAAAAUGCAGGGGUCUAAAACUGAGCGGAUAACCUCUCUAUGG RNA 2: GGGAAUGGAUCCACAUCUACGAAUUCGUACCAUAGAAAGGUUCUCCGCUCACCGAGAUCGGAAGAGCACACGU: 35
target 1 G5A,U10A (mixed) RNA 1: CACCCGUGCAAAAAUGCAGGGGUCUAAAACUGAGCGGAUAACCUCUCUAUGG RNA 2: GGGAAUGGAUCCACAUCUACGAAUUCGUACCAUAGAGAGGUAAUCCACUCACCGAGAUCGGAAGAGCACACGU: 84
target 1 del7,del13 (mixed) RNA 1: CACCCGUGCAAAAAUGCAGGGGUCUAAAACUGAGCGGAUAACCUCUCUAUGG RNA 2: GGGAAUGGAUCCACAUCUACGAAUUCGUACCAUAGAGAGUUAUCGCUCACCGAGAUCGGAAGAGCACACGU: 15.6
target 1 insC 3' of 19,insG 3' of 3 (mixed) RNA 1: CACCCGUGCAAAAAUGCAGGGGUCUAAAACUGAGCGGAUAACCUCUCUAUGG RNA 2: GGGAAUGGAUCCACAUCUACGAAUUCGUACCAUCAGAGAGGUUAUCCGCUGCACCGAGAUCGGAAGAGCACACGU: 26
target 1 insC 3' of 22,insG 3' of 8 (mixed) RNA 1: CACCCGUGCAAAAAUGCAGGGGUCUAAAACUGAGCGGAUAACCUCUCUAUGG RNA 2: GGGAAUGGAUCCACAUCUACGAAUUCGUACCCAUAGAGAGGUUAUGCCGCUCACCGAGAUCGGAAGAGCACACGU: 33
target 2 MT 5'PFS GGU 3'PFS AGA (mixed) RNA 1: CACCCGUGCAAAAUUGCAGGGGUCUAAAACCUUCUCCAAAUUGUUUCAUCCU RNA 2: GGGAAUGGAUCCACAUCUACGAAUUCGGUAGGAUGAAACAAUUUGGAGAAGAGAAGAUCGGAAGAGCACACGU: 10.6
target 2 MT 5'PFS GCG 3'PFS UUA (mixed) RNA 1: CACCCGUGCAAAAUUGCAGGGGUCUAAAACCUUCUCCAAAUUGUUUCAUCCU RNA 2: GGGAAUGGAUCCACAUCUACGAAUUCGCGAGGAUGAAACAAUUUGGAGAAGUUAAGAUCGGAAGAGCACACGU: 21

-- ask What value of Kd has been reported for the following binder? target 2 MT 5'PFS UUA 3'PFS CAG (mixed) RNA 1: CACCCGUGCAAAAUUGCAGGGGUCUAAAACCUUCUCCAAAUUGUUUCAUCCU RNA 2: GGGAAUGGAUCCACAUCUACGAAUUCUUAAGGAUGAAACAAUUUGGAGAAGCAGAGAUCGGAAGAGCACACGU
-- reply 18.5

The measured values listed here are drawn from paper PMC10786891.
